- Tested on: Enterococcus faecium EFM.384, Daptomycin resistant mutant (14-A)
- Type: cell-based
- conditionInfo: MHBc with 50 mg/L calcium, 18-20 hours at 37° C.
measuredQuantity: Efm384 MIC (µg/mL)
Write it as a number; the unit µg/mL goes unstated.

**Query** Which Efm384 MIC is reported for this compound? C[C@H](CC(=O)O)[C@@H]1NC(=O)[C@@H](CO)NC(=O)CNC(=O)[C@H](CC(=O)O)NC(=O)[C@@H](C)NC(=O)[C@H](CC(=O)O)NC(=O)[C@H](CCCN)NC(=O)CNC(=O)[C@@H](NC(=O)[C@H](CC(=O)O)NC(=O)[C@@H](CC(N)=O)NC(=O)[C@H](Cc2c[nH]c3ccccc23)NC(=O)CCCCCC2CCCCC2)[C@@H](C)OC(=O)[C@H](CC(=O)c2ccccc2N)NC1=O [Compound 26]
**Result** 16

**Query** # repeat for CCCCCCCCCCCCCC(=O)N[C@@H](Cc1c[nH]c2ccccc12)C(=O)N[C@H](CC(N)=O)C(=O)N[C@@H](CC(=O)O)C(=O)N[C@@H]1C(=O)NCC(=O)N[C@@H](CCCN)C(=O)N[C@@H](CC(=O)O)C(=O)N[C@H](C)C(=O)N[C@@H](CC(=O)O)C(=O)NCC(=O)N[C@H](CO)C(=O)N[C@@H]([C@H](C)CC(=O)O)C(=O)N[C@@H](CC(=O)c2ccccc2N)C(=O)O[C@@H]1C [Compound 6]
**Result** 4

**Query** Moving on to CCCCCCCCCOc1ccc(C(=O)N[C@@H](Cc2c[nH]c3ccccc23)C(=O)N[C@H](CC(N)=O)C(=O)N[C@@H](CC(=O)O)C(=O)N[C@@H]2C(=O)NCC(=O)N[C@@H](CCCN)C(=O)N[C@@H](CC(=O)O)C(=O)N[C@H](C)C(=O)N[C@@H](CC(=O)O)C(=O)NCC(=O)N[C@H](CO)C(=O)N[C@@H]([C@H](C)CC(=O)O)C(=O)N[C@@H](CC(=O)c3ccccc3N)C(=O)O[C@@H]2C)cc1 [Compound 37]
**Result** 2

**Query** Then what about the compound CCCCCCCOc1ccc(-c2ccc(C(=O)N[C@@H](Cc3c[nH]c4ccccc34)C(=O)N[C@H](CC(N)=O)C(=O)N[C@@H](CC(=O)O)C(=O)N[C@@H]3C(=O)NCC(=O)N[C@@H](CCCN)C(=O)N[C@@H](CC(=O)O)C(=O)N[C@H](C)C(=O)N[C@@H](CC(=O)O)C(=O)NCC(=O)N[C@H](CO)C(=O)N[C@@H]([C@H](C)CC(=O)O)C(=O)N[C@@H](CC(=O)c4ccccc4N)C(=O)O[C@@H]3C)cc2)cc1 [Compound 63] ?
**Result** 1

Measured values drawn from patent US20150337013A1 for this set.
